phosphorylation enrichment values, listed per item
molecular target: Fyn (UniProt P06241); assay: phosphorylation enrichment, bacterial display (enrichment ratio); higher = better substrate or ligand; peptides without Tyr show the background
Sequence (P06241 whole entry, looked up): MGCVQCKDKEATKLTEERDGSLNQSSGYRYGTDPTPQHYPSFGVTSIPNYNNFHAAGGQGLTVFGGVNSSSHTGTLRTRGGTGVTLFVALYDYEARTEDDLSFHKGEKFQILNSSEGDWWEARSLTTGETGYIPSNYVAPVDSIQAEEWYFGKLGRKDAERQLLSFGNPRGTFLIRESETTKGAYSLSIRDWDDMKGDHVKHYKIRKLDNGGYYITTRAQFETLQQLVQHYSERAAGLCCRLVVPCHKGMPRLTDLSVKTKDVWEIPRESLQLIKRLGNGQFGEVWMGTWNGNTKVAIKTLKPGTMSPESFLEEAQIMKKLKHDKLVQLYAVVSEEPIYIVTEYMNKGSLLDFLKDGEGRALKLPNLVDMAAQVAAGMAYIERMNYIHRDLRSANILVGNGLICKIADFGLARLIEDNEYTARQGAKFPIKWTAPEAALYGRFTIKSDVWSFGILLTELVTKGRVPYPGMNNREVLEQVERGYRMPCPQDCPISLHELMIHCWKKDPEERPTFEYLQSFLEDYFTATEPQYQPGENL
Please give only the number in your answer, with no unit.

Example results:
- sequence.content: "LFPANYVAPMT [GRAP2_Y324]"
  metric.name: "phosphorylation enrichment"
  measured.result: 0.446
- sequence.content: "CTTIHCNYMCN [TP53_Y234_Y234C]"
  metric.name: "phosphorylation enrichment"
  measured.result: 0.403
- sequence.content: "NKYVAYIESQG [KDM4B_Y34]"
  metric.name: "phosphorylation enrichment"
  measured.result: 0.407

Continue with the next sequence.
Record FADIAYNYRDG [PAH_Y166_H170D] / Fyn (UniProt P06241), phosphorylation enrichment recorded as 0.371

----------
target: Jak2 (UniProt O60674); experiment: phosphorylation enrichment, bacterial display (enrichment ratio); higher = better substrate or ligand; peptides without Tyr show the background
Sequence (O60674 whole entry, looked up): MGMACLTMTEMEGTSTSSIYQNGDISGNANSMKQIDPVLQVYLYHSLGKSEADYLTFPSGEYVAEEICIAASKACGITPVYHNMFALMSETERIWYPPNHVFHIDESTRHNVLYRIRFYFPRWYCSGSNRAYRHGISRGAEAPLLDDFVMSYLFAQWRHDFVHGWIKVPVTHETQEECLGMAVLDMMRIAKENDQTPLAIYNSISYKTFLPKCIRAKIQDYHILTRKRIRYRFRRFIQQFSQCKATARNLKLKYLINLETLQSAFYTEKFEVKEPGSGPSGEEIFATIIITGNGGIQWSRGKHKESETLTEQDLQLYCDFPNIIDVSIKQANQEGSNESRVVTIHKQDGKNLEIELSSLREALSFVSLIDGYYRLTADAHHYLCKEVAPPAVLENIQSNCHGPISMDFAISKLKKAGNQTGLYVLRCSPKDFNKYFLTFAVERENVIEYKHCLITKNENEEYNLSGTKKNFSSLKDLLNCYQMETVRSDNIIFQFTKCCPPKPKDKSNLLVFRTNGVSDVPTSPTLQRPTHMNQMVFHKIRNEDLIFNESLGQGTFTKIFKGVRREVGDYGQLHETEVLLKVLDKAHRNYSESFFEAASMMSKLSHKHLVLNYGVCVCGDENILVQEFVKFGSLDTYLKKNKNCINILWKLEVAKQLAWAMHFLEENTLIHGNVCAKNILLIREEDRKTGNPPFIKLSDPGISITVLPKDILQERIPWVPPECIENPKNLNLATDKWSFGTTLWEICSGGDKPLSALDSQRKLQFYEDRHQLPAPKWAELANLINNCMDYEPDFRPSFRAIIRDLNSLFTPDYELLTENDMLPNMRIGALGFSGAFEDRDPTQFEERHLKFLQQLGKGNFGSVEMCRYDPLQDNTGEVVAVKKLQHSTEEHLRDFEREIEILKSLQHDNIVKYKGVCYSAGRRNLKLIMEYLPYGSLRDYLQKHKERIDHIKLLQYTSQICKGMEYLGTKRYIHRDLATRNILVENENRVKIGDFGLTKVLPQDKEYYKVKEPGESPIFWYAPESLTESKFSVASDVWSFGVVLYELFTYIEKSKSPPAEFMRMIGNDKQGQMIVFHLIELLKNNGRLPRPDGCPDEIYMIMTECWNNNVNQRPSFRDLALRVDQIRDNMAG
Binary classification by phosphorylation enrichment, with 0.7 as an inclusive lower bound for 1; all other cases are 0.

Record excerpt, results attached:
- sequence.content: "RDMNACIRPSP [MMAA_Y207_Y207C]"
  group.label: 0
- sequence.content: "SFPSYYTSHVQ [NEFL_Y443]"
  group.label: 1

State whether the measured phosphorylation enrichment reaches 0.7, counting equality as reaching it, for SVTCTYFPALN [TP53_Y126_S127F] 1

Given the entry VDTFWYKLLKR [EPM2A_Y86_F88L] , answer whether its phosphorylation enrichment meets or surpasses 0.7. 1

Does LQKPMYEVQWK [KIT_Y553] have a reported phosphorylation enrichment of at least 0.7? 1

----------
target: Grb2 SH2 (UniProt P62993); assay: SH2 binding enrichment of the phosphorylated peptide, bacterial display (enrichment ratio); higher = better substrate or ligand; peptides without Tyr show the background
Sequence (P62993 whole entry, looked up): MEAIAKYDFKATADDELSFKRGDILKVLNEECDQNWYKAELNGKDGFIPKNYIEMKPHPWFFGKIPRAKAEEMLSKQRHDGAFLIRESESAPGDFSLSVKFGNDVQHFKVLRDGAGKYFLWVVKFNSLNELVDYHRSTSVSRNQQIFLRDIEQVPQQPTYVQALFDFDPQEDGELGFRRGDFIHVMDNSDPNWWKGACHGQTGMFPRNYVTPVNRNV
The entries below are paired with their reported SH2 binding enrichment.

- sequence.content: "PPNSPYIGSSP [KCNT1_Y740]"
  SH2 binding enrichment: 0.783

Lookup result for YSGDCYRIQGR [DDR2_Y741_Y740C] ; measured SH2 binding enrichment: 0.798

For record SGVVPYEPPEV [TP53_Y220_V216G] the listed SH2 binding enrichment is 0.814

----------
target: FGFR1 (UniProt P11362); assay: phosphorylation enrichment, bacterial display (enrichment ratio); higher = better substrate or ligand; peptides without Tyr show the background
Sequence (P11362 whole entry, looked up): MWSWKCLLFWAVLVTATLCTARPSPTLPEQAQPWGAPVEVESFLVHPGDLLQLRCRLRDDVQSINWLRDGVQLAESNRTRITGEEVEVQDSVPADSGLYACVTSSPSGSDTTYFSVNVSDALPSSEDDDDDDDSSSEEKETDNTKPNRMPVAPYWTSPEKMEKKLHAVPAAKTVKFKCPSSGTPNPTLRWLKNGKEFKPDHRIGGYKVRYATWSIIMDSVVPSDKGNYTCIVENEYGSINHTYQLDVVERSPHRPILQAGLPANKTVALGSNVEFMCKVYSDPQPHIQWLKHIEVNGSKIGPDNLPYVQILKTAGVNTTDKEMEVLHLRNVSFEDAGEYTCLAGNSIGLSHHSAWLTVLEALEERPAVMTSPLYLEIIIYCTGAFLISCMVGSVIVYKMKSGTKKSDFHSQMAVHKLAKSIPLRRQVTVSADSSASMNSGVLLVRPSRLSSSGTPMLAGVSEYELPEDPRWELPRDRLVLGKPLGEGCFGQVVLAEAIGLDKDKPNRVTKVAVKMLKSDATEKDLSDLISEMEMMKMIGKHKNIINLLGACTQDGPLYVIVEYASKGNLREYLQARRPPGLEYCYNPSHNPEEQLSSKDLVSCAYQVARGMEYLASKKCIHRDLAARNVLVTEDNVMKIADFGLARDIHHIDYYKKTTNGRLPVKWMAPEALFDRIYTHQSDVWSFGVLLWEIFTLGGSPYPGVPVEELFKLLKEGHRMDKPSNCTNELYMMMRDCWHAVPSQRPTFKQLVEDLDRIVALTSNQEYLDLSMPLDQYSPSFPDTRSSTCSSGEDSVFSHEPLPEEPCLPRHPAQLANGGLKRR
Collected phosphorylation enrichment values appear next to each entry.

Some solved entries appear below for comparison.
- sequence.content: "VASIFYTLVIP [OR8K3_Y277]"
  measured.result: 1.72
- sequence.content: "RLNCIYYKDQT [RS1_Y165_W163C]"
  measured.result: 0.971

// switching to the query sequence
For reference, reported phosphorylation enrichment for IIQRAYRRHLL [SCN1A_Y1926] stands at 0.499

----------
target: SHP2-C SH2; experiment: SH2 binding enrichment of the phosphorylated peptide, bacterial display (enrichment ratio); higher = better substrate or ligand; peptides without Tyr show the background
Record met whenever SH2 binding enrichment is at 0.7 or higher; record not met when lower.

Confirm if SH2 binding enrichment reported for the sequence AGADGYDFLAP [FOXL2_Y186_G187D_YF] is 0.7 or above. not met

Is reported SH2 binding enrichment greater than or equal to 0.7 here: SLFQFYFQQKG [CHKB_Y381_R377L] met

Decide: is the reported value of SH2 binding enrichment for NWGSPYKSNGC [ZNF347_Y261] equal to or greater than 0.7? met

Test whether the sequence PFQGAYLKINK [MYO1B_Y967_E969K] records SH2 binding enrichment of 0.7 or higher. met

Record EAVSIYQFFGQ [CBLC_Y402_H405Y_YF] ; criterion: SH2 binding enrichment no lower than 0.7. Met? met

----------
test system: AncSZ; assay: phosphorylation enrichment, bacterial display (enrichment ratio); higher = better substrate or ligand; peptides without Tyr show the background
metric.name: phosphorylation enrichment
Form rule: numeric answer, no unit written next to it.

- sequence.content: "SHGKRYRVPSD [HHIPL2_Y395]"
  phosphorylation enrichment: 0.379
- sequence.content: "SRGHQYQELPR [KCNH2_Y1009_R1007H]"
  phosphorylation enrichment: 0.527
- sequence.content: "FKWAVYCIIGR [NUP93_Y391_R388W_YF]"
  phosphorylation enrichment: 1.28
- sequence.content: "PTTKTYFPHFA [HBA1_Y43_D48A]"
  phosphorylation enrichment: 0.796
- sequence.content: "CPPELYALMSD [ZAP70_Y569]"
  phosphorylation enrichment: 1.57

Entry QEGPEYWDRNT [HLA-B_Y83] : phosphorylation enrichment on AncSZ = 1.36

AncSZ phosphorylation enrichment of LFSGDCFRIQG [DDR2_Y740_Y740C_YF] is 0.931

Entry EFKDAYKFAAD [BRDT_Y335_YF] ; assay system AncSZ; phosphorylation enrichment recorded at 0.647

With AncSZ as the test system, EEGEEYGGGGG [TUBA1A_Y451] showed phosphorylation enrichment of 1.19

Field phosphorylation enrichment (system: AncSZ) for entry DTYDPYLDIAL [USP36_Y268_V271I] = 1.6

Sample FCRHNYGVGES [HLA-DRB1_Y112_V115G_YF] , system: AncSZ. Its phosphorylation enrichment is 0.657

Let me check: RMDGTYACSFT [FLNB_Y704_YF] , system AncSZ, measured phosphorylation enrichment is 1.3

----------
The following sequences are listed with their measured SH2 binding enrichment values.
target: Grb2 SH2 (UniProt P62993); test: SH2 binding enrichment of the phosphorylated peptide, bacterial display (enrichment ratio); higher = better substrate or ligand; peptides without Tyr show the background

Sample answers from the record:
- sequence.content: "ALMGLYHGQVL [HADHA_Y343]"
  SH2 binding enrichment: 1.15
- sequence.content: "LNPFIYSLRNR [OR1A1_Y288]"
  SH2 binding enrichment: 0.873
- sequence.content: "EGNEQYEGYCV [GRIA3_Y451_R450Q]"
  SH2 binding enrichment: 1.01
- sequence.content: "RLGDLYKEEMR [VIM_Y150_E151K]"
  SH2 binding enrichment: 1.09
- sequence.content: "CTTIHYNYVCN [TP53_Y234_M237V]"
  SH2 binding enrichment: 1.36
- sequence.content: "EEGEEYGGGGG [TUBA1A_Y451]"
  SH2 binding enrichment: 0.97

The recorded SH2 binding enrichment for entry AKIDGYIISYR equals 0.961

Memo: SIKDKYLTALF [KCNH2_Y611_V612L_YF] , reported SH2 binding enrichment: 1.07

Lab note: measured SH2 binding enrichment of RLDGEYFTLQI [TP53_Y327_P322R] was 0.701

Recorded SH2 binding enrichment (sequence KVGRVYLFLQP [ITGA2B_Y360_E355K] ): 0.843

// SYKNKYGMVAQ [APOB_Y276] : SH2 binding enrichment value = 1.01

// field: SH2 binding enrichment; key: ADGLEYSRTGL [MMUT_Y287] ; value = 0.758

Data point: VISNAYVDLAP [HSD17B4_Y602] ; SH2 binding enrichment = 0.858

----------
target: Jak2 (UniProt O60674); experiment: phosphorylation enrichment, bacterial display (enrichment ratio); higher = better substrate or ligand; peptides without Tyr show the background
phosphorylation enrichment vs 0.9: at or above is condition met, below is condition not met.

Worked cases, answers included:
- sequence.content: "WQQQSYLDYGI [CTNNB1_Y30_S33Y]"
  group.label: "condition not met"
- sequence.content: "ALARKYHGGGG [HBB_Y146_H144R]"
  group.label: "condition not met"
- sequence.content: "KFVVVYFREID [IL17RB_Y447_YF]"
  group.label: "condition met"

Hi, just wondering whether DVRQEYPGMIL [PLXND1_Y616] shows phosphorylation enrichment of 0.9 or higher. condition not met

phosphorylation enrichment >= 0.9 for PSGPAYRGAVP [ASAH1_Y43_T42A] ? condition not met

# bool: phosphorylation enrichment of GRTNICKNKKD [SLC26A3_Y520_Y520C] >= 0.9 condition met

Evaluate LAVNPYGPPDP : phosphorylation enrichment at minimum 0.9? condition not met

Is reported phosphorylation enrichment greater than or equal to 0.9 here: GSIQQYTFKQE [PRG4_Y1271_I1272T_YF] condition not met

Would you say CKRQFYLYKGK [RSPO4_Y112] shows phosphorylation enrichment at minimum 0.9? condition not met

Is reported phosphorylation enrichment greater than or equal to 0.9 here: MSSLFYANALF [HOXB7_Y6_T9A_YF] condition met

Quick check, phosphorylation enrichment >= 0.9? LGGAMYFLEAD [PKHD1_Y452_E457D_YF] condition met

Hello, I need to know if LLANAYIFDVQ [L1CAM_Y418_V421D_YF] has measured phosphorylation enrichment not below 0.9. Thanks! condition met

Determine whether measured phosphorylation enrichment meets or exceeds 0.9 for GLRSYYETSKM [MAGED2_Y449] condition not met

Hi team, for GGFTWYCDGKK [PROS1_Y266_C265W_YF] , is the recorded phosphorylation enrichment at or above 0.9? condition met

Say whether ADRNHYRRFRR [YBX1_Y145_P149R_YF] shows phosphorylation enrichment of 0.9 or more. condition not met

phosphorylation enrichment >= 0.9 for RVLHNYLVWRV [ECEL1_Y400] ? condition met

Given the entry RENGPYFTSFP [GDAP2_Y487_YF] , answer whether its phosphorylation enrichment meets or surpasses 0.9. condition met

Does phosphorylation enrichment meet or surpass 0.9 for PGGNIYISPLK [RB1_Y805] ? condition not met

Confirm if phosphorylation enrichment reported for the sequence LTTEVYFPSIK [C5orf64_Y60_A57T] is 0.9 or above. condition not met

Textbook exercise: given the entry IIRQLYLKWHP [SACS_Y4333_R4331Q] , state whether its phosphorylation enrichment is greater than or equal to 0.9. condition met
